B1: FEM1A (parent)
chain: PCCSSSPEEPLNGESYESCCPTSR

# Variants of: B1
# protocolDescription: protein stability index of a GFP-peptide fusion (GPS, HEK-293T) (PSI 1-6); higher = more stable;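 also: lentivirally expressed fusions sorted by FACS into six bins by GFP to DsRed ratio, PSI derived from sequencing read proportions per bin multiplied by bin number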
# conditionsUsed: c terminus: a fixed tail appended

mutationName	protein stability index
C19R	3.97
S5G	3.66
L11E	3.5
P7H	3.37
P21W	2.62
Y16G	3.9
R24L	4.81
S18D	4.23
Y16D	4.57
T22A	3.99
L11S	3.84
S15D	4.61
Y16C	4.27
S4E	3.87
R24F	4.78
S5R	3.28
S6R	3.66
E17G	3.43
E14V	2.8
S23W	3.43
P10M	3.73
S18H	3.74
S5F	2.48
T22M	3.45
E14T	2.94
T22S	4.04
P7T	3.29
P1I	3.97
P7C	3.67
S15V	3.81
P21H	3.71
E8V	2.38
E14M	2.99
C2Q	4.89
S23I	3.53
S18E	4
S15P	4.14
S23G	3.75
C20N	4.35
S6V	3.8
E8M	2.48
T22F	3.36
S15A	3.98
S18R	3.11
P21I	2.6
E8N	3.35
C3K	4.7
C20W	3.69
R24I	4.39
S18W	2.5
R24Y	4.25
C3G	4.91
C3F	4.83
S6Y	2.97
C3L	4.76
E14P	3.41
S23C	4.2
C19Y	3.72
N12D	4.86
N12V	3.58
P21S	3.09
P1L	3.69
E8T	3.03
C19V	3.89
C19T	3.56
E14Y	2.41
P10C	3.46
E17Y	2.52
P21N	3.81
L11A	4.52
N12M	3.98
R24D	5.19
E8R	2.88
S18Q	4.02
P1Q	3.95
E8W	1.63
N12W	3.03
L11D	3.94
C3Y	4.66
P21C	3.92
S15R	3.51
P21D	5

Data origin, for the record: the supplement of paper PMC10567573
